target: full-length beta-Catenin (Uniprot ID P35222) (Homo sapiens, UniProt P35222); construct: 10 nM full-length beta-Catenin (Uniprot ID P35222); assay: Fluorescence polarization IC50 (beta-catenin / 5FAM-TCF4 10-53 competition); type: binding; conditions: fluorescence polarization; read-out: beta-Catenin FP IC50
Sequence (P35222 whole entry): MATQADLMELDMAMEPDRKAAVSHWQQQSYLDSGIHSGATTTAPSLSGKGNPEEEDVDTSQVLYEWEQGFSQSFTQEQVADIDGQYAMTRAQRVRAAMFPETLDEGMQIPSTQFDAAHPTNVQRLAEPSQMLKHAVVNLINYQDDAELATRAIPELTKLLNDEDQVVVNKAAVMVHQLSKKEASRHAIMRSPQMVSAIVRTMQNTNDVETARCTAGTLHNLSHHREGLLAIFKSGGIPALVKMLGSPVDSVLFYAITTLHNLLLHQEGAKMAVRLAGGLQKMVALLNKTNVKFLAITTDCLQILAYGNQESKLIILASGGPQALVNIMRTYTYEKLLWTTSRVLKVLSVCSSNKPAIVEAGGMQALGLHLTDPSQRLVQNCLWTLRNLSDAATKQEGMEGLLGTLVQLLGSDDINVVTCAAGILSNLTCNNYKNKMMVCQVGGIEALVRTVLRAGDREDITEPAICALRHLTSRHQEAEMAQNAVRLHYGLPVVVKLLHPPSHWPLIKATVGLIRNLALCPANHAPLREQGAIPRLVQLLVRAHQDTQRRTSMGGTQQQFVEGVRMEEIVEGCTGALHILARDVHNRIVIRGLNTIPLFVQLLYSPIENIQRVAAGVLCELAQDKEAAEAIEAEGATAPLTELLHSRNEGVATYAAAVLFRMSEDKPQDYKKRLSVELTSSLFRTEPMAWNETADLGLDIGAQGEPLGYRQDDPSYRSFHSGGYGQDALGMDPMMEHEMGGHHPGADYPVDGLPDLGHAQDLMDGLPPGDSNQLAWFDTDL
Attribute: pIC50
Units for pIC50: none; it is -log10 of a concentration expressed in mol/L.

CC[C@H](C)[C@@H]1NC(=O)[C@H](CC(=O)O)NC(=O)[C@]2(CC=CCCCC3(CCCC=CCCCCCC[C@@](C)(C(=O)N[C@@H](Cc4ccccc4)C(=O)N[C@@H](Cc4csc5ccccc45)C(=O)N[C@@H](CCN)C(N)=O)NC(=O)[C@H](CCC(N)=O)NC(=O)[C@H](Cc4ccccc4)NC(=O)[C@H](C)NC(=O)[C@H](C)NC(=O)[C@H](CC(=O)O)NC(=O)[C@H](CC(=O)O)NC3=O)NC1=O)CCCN2C(C)=O (some centres unmarked)	6.93

In the following, a different compound is considered.
Just so you know, measured pIC50 for CC(=O)N1CCC[C@]12CC=CCCCC1(CCCC=CCCCOC(=O)N3CC[C@@](C(=O)N[C@@H](Cc4ccsc4)C(=O)N[C@@H](Cc4csc5ccccc45)C(=O)N[C@@H](CCC(N)=O)C(N)=O)(C3)NC(=O)[C@H](CC(N)=O)NC(=O)[C@H](Cc3ccccc3)NC(=O)C(C)(C)NC(=O)[C@H](C)NC(=O)[C@H]([C@@H](C)O)NC(=O)[C@H](CC(N)=O)NC1=O)NC(=O)[C@H](CC(C)(C)C)NC(=O)[C@H](CC(=O)O)NC2=O (some centres unmarked) came out at 5.55

---

molecular target: full-length beta-Catenin (Uniprot ID P35222) (Homo sapiens); construct: 10 nM full-length beta-Catenin (Uniprot ID P35222); experiment: Fluorescence polarization IC50 (beta-catenin / 5FAM-TCF4 10-53 competition); format: binding; conditions: read-out: FP EC50
Attribute: pIC50
Units for pIC50: none; it is -log10 of a concentration expressed in mol/L.

CC(=O)N1CCC[C@]12CC=CCCCC1(CCCC=CCCCCCC[C@@](C)(C(=O)N[C@@H](Cc3ccsc3)C(=O)N[C@@H](Cc3csc4ccccc34)C(=O)N[C@@H](CCC(N)=O)C(N)=O)NC(=O)[C@H](CC(N)=O)NC(=O)[C@H](Cc3ccccc3)NC(=O)[C@H](C)NC(=O)[C@H](C)NC(=O)[C@H](CN(CC(=O)O)CC(F)(F)F)NC(=O)[C@H](CC(=O)O)NC1=O)NC(=O)[C@H](CC1CCCCC1)NC(=O)[C@H](CC(=O)O)NC2=O (stereo partly shown) [I-708]	7.28
CC[C@@H]1NC(=O)[C@H](CC(=O)O)NC(=O)[C@]2(CC=CCCCC3(CCCC=CCCCCCC[C@@](C)(C(=O)N[C@@H](Cc4ccccc4)C(=O)N[C@@H](Cc4csc5ccccc45)C(=O)N[C@@H](Cc4c[nH]cn4)C(N)=O)NC(=O)[C@H](CC(N)=O)NC(=O)[C@H](Cc4ccccc4)NC(=O)[C@H](C)NC(=O)[C@H](C)NC(=O)[C@H](CC(=O)O)NC(=O)[C@H](CC(=O)O)NC3=O)NC1=O)CCCN2C(C)=O (stereo partly shown) [I-574]	7.44
CC(=O)N1CCC[C@]12CC=CCCCC1(CCCC=CCCCCCC[C@@](C)(C(=O)N[C@@H](Cc3ccccc3)C(=O)N[C@@H](Cc3csc4ccccc34)C(=O)N[C@H](CC(N)=O)C(N)=O)NC(=O)[C@H](CC(N)=O)NC(=O)[C@H](Cc3ccccc3)NC(=O)[C@H](C)NC(=O)[C@H](C)NC(=O)[C@H](CCC(=O)O)NC(=O)[C@H](CC(=O)O)NC1=O)NC(=O)[C@H](CC(C)C)NC(=O)[C@H](CC(=O)O)NC2=O (stereo partly shown) [I-757]	7.19
CC(=O)N1CCC[C@]12CC=CCCCC1(CCCC=CCCCCCC[C@@](C)(C(=O)N[C@@H](Cc3ccccc3)C(=O)N[C@@H](Cc3csc4ccccc34)C(N)=O)NC(=O)[C@H](CCCNC(N)=O)NC(=O)[C@H](Cc3ccccc3)NC(=O)[C@H](C)NC(=O)[C@H](C)NC(=O)[C@H](CCC(=O)O)NC(=O)[C@H](CC(=O)O)NC1=O)NC(=O)[C@H](CC(C)C)NC(=O)[C@H](CC(=O)O)NC2=O (stereo partly shown) [I-628]	6.15
CC(=O)N1CCC[C@]12CC=CCCCC1(CCCC=CCCCCCC[C@@](C)(C(=O)N[C@@H](Cc3ccccc3)C(=O)N[C@@H](Cc3csc4ccccc34)C(=O)N[C@@H](CCC(N)=O)C(N)=O)NC(=O)[C@H](CC(N)=O)NC(=O)[C@H](Cc3ccccc3C)NC(=O)[C@H](C)NC(=O)[C@H](C)NC(=O)[C@H](CCC(=O)O)NC(=O)[C@H](CC(=O)O)NC1=O)NC(=O)[C@H](C)NC(=O)[C@H](CC(=O)O)NC2=O (stereo partly shown) [I-457]	5.84
CC(=O)N1CCC[C@]12CC=CCCCC1(CCCC=CCCCCCC[C@@](C)(C(=O)N[C@@H](Cc3ccccc3)C(=O)N[C@@H](Cc3csc4ccccc34)C(=O)N[C@@H](CCC(N)=O)C(N)=O)NC(=O)[C@H](CCC(N)=O)NC(=O)[C@H](Cc3ccccc3)NC(=O)[C@H](C)NC(=O)[C@H](C)NC(=O)[C@H](CC(=O)O)NC(=O)[C@H](CC(=O)O)NC1=O)NC(=O)[C@H](CC(C)C)NC(=O)[C@H](CC(=O)O)NC2=O (stereo partly shown) [I-558]	7.25
CC(=O)N1CCC[C@]12CC=CCCCC1(CCCC=CCCCCCC[C@@](C)(C(=O)N[C@@H](Cc3ccccc3)C(=O)N[C@@H](Cc3csc4ccccc34)C(=O)N[C@@H](CCC(N)=O)C(N)=O)NC(=O)[C@H](CCC(N)=O)NC(=O)[C@H](Cc3ccccc3)NC(=O)[C@H](C)NC(=O)[C@H](C)NC(=O)[C@H](CCC(=O)O)NC(=O)[C@H](CC(=O)O)NC1=O)NC(=O)[C@H](CCCCNC(=O)CN=[N+]=[N-])NC(=O)[C@H](CC(=O)O)NC2=O (stereo partly shown) [I-590]	7.35
CC(=O)N1CCC[C@]12CC=CCCCC1(CCCC=CCCCCCC[C@@](C)(C(=O)N[C@@H](Cc3ccccc3)C(=O)N[C@@H](Cc3csc4ccccc34)C(=O)N[C@@H](CCO)C(N)=O)NC(=O)[C@H](CCC(N)=O)NC(=O)[C@H](Cc3ccccc3)NC(=O)[C@H](C)NC(=O)[C@H](C)NC(=O)[C@H](CCC(=O)O)NC(=O)[C@H](CC(=O)O)NC1=O)NC(=O)[C@H](C)NC(=O)[C@H](CC(=O)O)NC2=O (stereo partly shown) [I-491]	6.82
CC(=O)N1CCC[C@]12CC=CCCCC1(CCCC=CCCCCCC[C@@](C)(C(=O)N[C@@H](Cc3ccsc3)C(=O)N[C@@H](Cc3csc4ccccc34)C(=O)N[C@@H](CCC(N)=O)C(N)=O)NC(=O)[C@H](CCC(N)=O)NC(=O)[C@H](Cc3ccccc3)NC(=O)[C@H](C)NC(=O)[C@H](C)NC(=O)[C@H](CCC(=O)O)NC(=O)[C@H](CC(=O)O)NC1=O)NC(=O)[C@H](C)NC(=O)[C@H](CC(=O)O)NC2=O (stereo partly shown) [I-427]	7.41

In the following, a different molecule is considered.
Just so you know, measured pIC50 for CC[C@H](C)[C@@H]1NC(=O)[C@H](CC(=O)O)NC(=O)[C@]2(CC=CCCCC3(CCCC=CCCCCCC[C@@](C)(C(=O)N[C@@H](Cc4ccccc4)C(=O)N[C@@H](Cc4csc5ccccc45)C(=O)N[C@@H](CCC(N)=O)C(N)=O)NC(=O)[C@H](CCC(N)=O)NC(=O)[C@H](Cc4ccccc4)NC(=O)[C@H](C)NC(=O)[C@H](C)NC(=O)[C@H](CCCNC(N)=O)NC(=O)[C@H](CC(=O)O)NC3=O)NC1=O)CCCN2C(C)=O (stereo partly shown) [I-604] came out at 6.16
